Molecular target: T1, human IL-6 (human, UniProt P05231 30-212)
T1 construct: also called interleukin-6
T1 sequence (P05231 30-212 limits assumed): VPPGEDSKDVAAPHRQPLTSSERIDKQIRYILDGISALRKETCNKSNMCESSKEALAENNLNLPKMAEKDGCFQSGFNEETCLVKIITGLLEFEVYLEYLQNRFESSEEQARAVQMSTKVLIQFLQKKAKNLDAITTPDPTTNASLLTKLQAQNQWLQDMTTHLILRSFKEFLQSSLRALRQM
Test: SPR (Biacore T200), antibody from cell supernatant captured on Protein A, IL-6 flowed over, 37 C
PARAMETER_MEASURED: kon

Query anti-IL-6 antibody, heavy chain I51Q, G66D / light chain WT (antibody, human IgG1, V domains shown, Derived as m2; Engineered human IgG1) VH: EVQLVESGGGLVQPGGSLRLSCAASGFTFSPFAMSWVRQAPGKGLEWVAKQSPGGSWTYYSDTVTDRFTFSLDTSKSTAYLQMNSLRAEDTAVYYCARQLWGYYALDIWGQGTLVTVSS VL: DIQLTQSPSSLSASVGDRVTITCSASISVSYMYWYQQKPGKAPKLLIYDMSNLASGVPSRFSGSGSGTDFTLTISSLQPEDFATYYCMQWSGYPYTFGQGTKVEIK yields kon of 1.93e+06 M⁻¹ s⁻¹

Query anti-IL-6 antibody, heavy chain S35I, G66D / light chain WT (antibody, human IgG1, V domains shown, Derived as m2; Engineered human IgG1) VH: EVQLVESGGGLVQPGGSLRLSCAASGFTFSPFAMIWVRQAPGKGLEWVAKISPGGSWTYYSDTVTDRFTFSLDTSKSTAYLQMNSLRAEDTAVYYCARQLWGYYALDIWGQGTLVTVSS VL: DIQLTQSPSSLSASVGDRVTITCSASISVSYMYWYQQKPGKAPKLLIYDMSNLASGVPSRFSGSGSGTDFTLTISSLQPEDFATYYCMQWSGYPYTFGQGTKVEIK yields kon of 1.12e+06 M⁻¹ s⁻¹

Query anti-IL-6 antibody, heavy chain T63K, G66D / light chain WT (antibody, human IgG1, V domains shown, Derived as m2; Engineered human IgG1) VH: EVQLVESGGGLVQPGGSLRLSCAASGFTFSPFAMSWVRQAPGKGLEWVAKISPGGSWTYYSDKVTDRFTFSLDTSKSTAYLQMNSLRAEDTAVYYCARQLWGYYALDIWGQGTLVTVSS VL: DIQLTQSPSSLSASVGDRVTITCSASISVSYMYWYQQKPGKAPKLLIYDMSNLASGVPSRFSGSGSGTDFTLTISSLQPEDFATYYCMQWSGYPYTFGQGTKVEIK yields kon of 2.49e+06 M⁻¹ s⁻¹

Query anti-IL-6 antibody, heavy chain T65G, G66D / light chain WT (antibody, human IgG1, V domains shown, Derived as m2; Engineered human IgG1) VH: EVQLVESGGGLVQPGGSLRLSCAASGFTFSPFAMSWVRQAPGKGLEWVAKISPGGSWTYYSDTVGDRFTFSLDTSKSTAYLQMNSLRAEDTAVYYCARQLWGYYALDIWGQGTLVTVSS VL: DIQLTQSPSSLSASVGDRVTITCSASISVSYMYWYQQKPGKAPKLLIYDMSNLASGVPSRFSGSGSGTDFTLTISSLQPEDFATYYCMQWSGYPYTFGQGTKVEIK yields kon of 1.77e+06 M⁻¹ s⁻¹

Query anti-IL-6 antibody, heavy chain I51R, G66D / light chain WT (antibody, human IgG1, V domains shown, Derived as m2; Engineered human IgG1) VH: EVQLVESGGGLVQPGGSLRLSCAASGFTFSPFAMSWVRQAPGKGLEWVAKRSPGGSWTYYSDTVTDRFTFSLDTSKSTAYLQMNSLRAEDTAVYYCARQLWGYYALDIWGQGTLVTVSS VL: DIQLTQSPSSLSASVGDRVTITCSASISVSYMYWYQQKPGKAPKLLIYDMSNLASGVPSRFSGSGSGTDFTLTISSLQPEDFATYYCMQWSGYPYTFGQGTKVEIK yields kon of 1.2e+06 M⁻¹ s⁻¹
